test: xn = mol fraction of the nth substance listed; settings: 303.15 K; 98.93 kPa; Liquid; x1 = 0.1
Measured endpoint: mass density (kg/m3)
Report as a plain number; the unit kg/m3 is understood.

Exercise: Request the reported mass density associated with OCCCO [propan-1,3-diol] + O
Solution: 1018.45

Exercise: Request the reported mass density associated with CC(O)CO (centres undefined) [1,2-propanediol] + O
Solution: 1019.88

Exercise: Request the reported mass density associated with CCCO [propan-1-ol] + O
Solution: 952.93

Exercise: Request the reported mass density associated with OCC(O)CO [glycerol] + O
Solution: 1084.79

---

assay: xn = mol fraction of the nth substance listed; conditions: 303.15 K; 98.93 kPa; Liquid; x1 = 0.08
Measured endpoint: mass density (kg/m3)
Report as a plain number; the unit kg/m3 is understood.

Exercise: Request the reported mass density associated with CC(O)CO (centres undefined) [1,2-propanediol] + O
Solution: 1015.78

Exercise: Request the reported mass density associated with OCCCO [propan-1,3-diol] + O
Solution: 1014.57

Exercise: Request the reported mass density associated with CCCO [propan-1-ol] + O
Solution: 961.92

Exercise: Request the reported mass density associated with OCC(O)CO [glycerol] + O
Solution: 1070.74

---

assay: xn = mol fraction of the nth substance listed; conditions: 293.15 K; 98.93 kPa; Liquid; x1 = 0.05
± gives the expanded uncertainty stated by the source.
Some molecules, each annotated with its measured mass density.

Here's what some known entries look like.
Molecule	mass density
OCC(O)CO [glycerol] + O	1050.15 ± 1.3 kg/m3
OCCCO [propan-1,3-diol] + O	1011.23 ± 1.2 kg/m3
CC(O)CO (centres undefined) [1,2-propanediol] + O	1012.66 ± 1.2 kg/m3

Now let's try a different one.
Exercise: Request the reported mass density associated with CCCO [propan-1-ol] + O
Solution: 977.1 ± 1.2 kg/m3

---

test: xn = mol fraction of the nth substance listed; settings: 308.15 K; 98.93 kPa; Liquid; x1 = 0.2
Numbers after ± are expanded uncertainties.
Measured endpoint: mass density
Include the unit after the number when you answer.

Here's what some known entries look like.
Compound	mass density
CC(O)CO (centres undefined) [1,2-propanediol] + O	1027.98 ± 1.6 kg/m3
OCCCO [propan-1,3-diol] + O	1029.35 ± 1.5 kg/m3

Exercise: Request the reported mass density associated with CCCO [propan-1-ol] + O
Solution: 911.83 ± 1.3 kg/m3

Exercise: Request the reported mass density associated with OCC(O)CO [glycerol] + O
Solution: 1134.94 ± 1.7 kg/m3

---

experiment: xn = mol fraction of the nth substance listed; details: 308.15 K; 98.93 kPa; Liquid; x1 = 0.08
Some compounds, each annotated with its measured mass density.
Report as a plain number; the unit kg/m3 is understood.

Compound	mass density, kg/m3
CC(O)CO (centres undefined) [1,2-propanediol] + O	1013.54
OCCCO [propan-1,3-diol] + O	1012.35
OCC(O)CO [glycerol] + O	1068.56

Now let's try a different one.
Exercise: Request the reported mass density associated with CCCO [propan-1-ol] + O
Solution: 959.82

---

test: xn = mol fraction of the nth substance listed; details: 293.15 K; 98.93 kPa; Liquid; x1 = 0.1
Measured endpoint: mass density (kg/m3)
Report as a plain number; the unit kg/m3 is understood.

Here's what some known entries look like.
Molecule	mass density [kg/m3]
CCCO [propan-1-ol] + O	957.26
CC(O)CO (centres undefined) [1,2-propanediol] + O	1025.18
OCCCO [propan-1,3-diol] + O	1022.38

Now let's try a different one.
Exercise: Request the reported mass density associated with OCC(O)CO [glycerol] + O
Solution: 1089.16

---

experiment: xn = mol fraction of the nth substance listed; details: 288.15 K; 98.93 kPa; Liquid; x1 = 0.17
Some molecules, each annotated with its measured mass density.
Report as a plain number; the unit kg/m3 is understood.

Here's what some known entries look like.
Molecule	mass density (kg/m3)
OCC(O)CO [glycerol] + O	1131.96
CC(O)CO (centres undefined) [1,2-propanediol] + O	1038.5
OCCCO [propan-1,3-diol] + O	1036.24

Now let's try a different one.
Exercise: Request the reported mass density associated with CCCO [propan-1-ol] + O
Solution: 931.45

---

experiment: xn = mol fraction of the nth substance listed; conditions: 308.15 K; 98.93 kPa; Liquid; x1 = 0.002
Measured endpoint: mass density (kg/m3)
Report as a plain number; the unit kg/m3 is understood.

Here's what some known entries look like.
Compound	Unit abbreviation	Observed result
CCCO [propan-1-ol] + O	kg/m3	992.72
OCC(O)CO [glycerol] + O	kg/m3	996.37
CC(O)CO (centres undefined) [1,2-propanediol] + O	kg/m3	994.48

Exercise: Request the reported mass density associated with OCCCO [propan-1,3-diol] + O
Solution: 994.51

---

Some molecules, each annotated with its measured mass density.
assay: xn = mol fraction of the nth substance listed; details: 308.15 K; 98.93 kPa; Liquid; x1 = 0.05
Report as a plain number; the unit kg/m3 is understood.

Here's what some known entries look like.
Molecule	mass density, kg/m3
OCC(O)CO [glycerol] + O	1044.59
CCCO [propan-1-ol] + O	972.3
OCCCO [propan-1,3-diol] + O	1006.03

Exercise: Request the reported mass density associated with CC(O)CO (centres undefined) [1,2-propanediol] + O
Solution: 1006.42

---

Some molecules, each annotated with its measured mass density.
experiment: xn = mol fraction of the nth substance listed; conditions: 308.15 K; 98.93 kPa; Liquid; x1 = 0.065
Report as a plain number; the unit kg/m3 is understood.

Molecule	Measured endpoint	Unit abbreviation	Observed result
CC(O)CO (centres undefined) [1,2-propanediol] + O	mass density	kg/m3	1010.15
OCCCO [propan-1,3-diol] + O	mass density	kg/m3	1009.3
OCC(O)CO [glycerol] + O	mass density	kg/m3	1057.08

Now let's try a different one.
Exercise: Request the reported mass density associated with CCCO [propan-1-ol] + O
Solution: 966.41

---

assay: xn = mol fraction of the nth substance listed; conditions: 298.15 K; 98.93 kPa; Liquid; x1 = 0.08
Some compounds, each annotated with its measured mass density.
Report as a plain number; the unit kg/m3 is understood.

Compound	Unit abbreviation	mass density
CCCO [propan-1-ol] + O	kg/m3	963.72
CC(O)CO (centres undefined) [1,2-propanediol] + O	kg/m3	1018.36
OCC(O)CO [glycerol] + O	kg/m3	1072.85

Now let's try a different one.
Exercise: Request the reported mass density associated with OCCCO [propan-1,3-diol] + O
Solution: 1016.57

---

test: xn = mol fraction of the nth substance listed; details: 303.15 K; 98.93 kPa; Liquid; x1 = 0.065
Measured endpoint: mass density (kg/m3)
Report as a plain number; the unit kg/m3 is understood.

Here's what some known entries look like.
Molecule	mass density, kg/m3
OCCCO [propan-1,3-diol] + O	1011.4
CC(O)CO (centres undefined) [1,2-propanediol] + O	1012.36
CCCO [propan-1-ol] + O	968.38

Now let's try a different one.
Exercise: Request the reported mass density associated with OCC(O)CO [glycerol] + O
Solution: 1059.16

---

experiment: xn = mol fraction of the nth substance listed; details: 283.15 K; 98.93 kPa; Liquid; x1 = 0.08
Numbers after ± are expanded uncertainties.
Measured endpoint: mass density
Include the unit after the number when you answer.

Here's what some known entries look like.
Compound	mass density
OCC(O)CO [glycerol] + O	1078.01 ± 1.5 kg/m3
OCCCO [propan-1,3-diol] + O	1021.01 ± 1.4 kg/m3
CCCO [propan-1-ol] + O	969.18 ± 1.3 kg/m3

Exercise: Request the reported mass density associated with CC(O)CO (centres undefined) [1,2-propanediol] + O
Solution: 1025.18 ± 1.4 kg/m3

---

experiment: xn = mol fraction of the nth substance listed; settings: 283.15 K; 98.93 kPa; Liquid; x1 = 0.03
Measured endpoint: mass density (kg/m3)
Report as a plain number; the unit kg/m3 is understood.

Here's what some known entries look like.
Compound	mass density (kg/m3)
CCCO [propan-1-ol] + O	986.29
CC(O)CO (centres undefined) [1,2-propanediol] + O	1008.94
OCCCO [propan-1,3-diol] + O	1008.07

Now let's try a different one.
Exercise: Request the reported mass density associated with OCC(O)CO [glycerol] + O
Solution: 1033.4

---

assay: xn = mol fraction of the nth substance listed; conditions: 308.15 K; 98.93 kPa; Liquid; x1 = 0.01
± gives the expanded uncertainty stated by the source.
Measured endpoint: mass density
Include the unit after the number when you answer.

Here's what some known entries look like.
Compound	Observed result
CCCO [propan-1-ol] + O	988.4 ± 1.4 kg/m3
OCC(O)CO [glycerol] + O	1005.42 ± 1.4 kg/m3
CC(O)CO (centres undefined) [1,2-propanediol] + O	996.34 ± 1.4 kg/m3

Now let's try a different one.
Exercise: Request the reported mass density associated with OCCCO [propan-1,3-diol] + O
Solution: 996.53 ± 1.4 kg/m3
